# measurementNotes: xn = mol fraction of the nth substance listed
# conditionLabel: 298.15 K; 100 kPa; Liquid; Vibrating tube method; x1 = 0.5999
endpointName: mass density (kg/m3)
Answer format: numeric, kg/m3 implied, no suffix.

> print(dat)
                                   compound  measurednumber
1  CCCCCCCC(=O)OCC [ethyl octanoate] + CC(C)CO           845.9
2  CCCCCCCC(=O)OCC [ethyl octanoate] + CC(C)CCO           846.2
3  CCOC(=O)CCC(=O)OCC [diethyl butanedioate] + CC(C)CO          969.07

Q: Determine its reported mass density: CCOC(=O)CCC(=O)OCC [diethyl butanedioate] + CC(C)CCO
Result: 962.98

----------
# measurementNotes: refractive index (Na D-line) (dimensionless); xn = mol fraction of the nth substance listed
# conditionLabel: 293.15 K; 100 kPa; Liquid; Standard Abbe refractometry; x1 = 0.5999
Numbers after ± are expanded uncertainties.
endpointName: refractive index

Answered examples (3):
> print(dat)
                                   compound           result
1  CCOC(=O)CCC(=O)OCC [diethyl butanedioate] + CC(C)CCO   1.415 ± 0.0028
2  CCOC(=O)CCC(=O)OCC [diethyl butanedioate] + CC(C)CO  1.4127 ± 0.0028
3  CCCCCCCC(=O)OCC [ethyl octanoate] + CC(C)CO   1.412 ± 0.0028

Q: Name the recorded refractive index of the item CCCCCCCC(=O)OCC [ethyl octanoate] + CC(C)CCO in your answer.
Result: 1.4144 ± 0.0028

----------
# measurementNotes: refractive index (Na D-line) (dimensionless); xn = mol fraction of the nth substance listed
# conditionLabel: 303.15 K; 100 kPa; Liquid; Standard Abbe refractometry; x1 = 0.5999
endpointName: refractive index
Keep the answer to the number alone.

# count of solved cases: 3
> print(dat)
                                   compound  measurednumber
1  CCCCCCCC(=O)OCC [ethyl octanoate] + CC(C)CCO            1.41
2  CCOC(=O)CCC(=O)OCC [diethyl butanedioate] + CC(C)CCO          1.4106
3  CCOC(=O)CCC(=O)OCC [diethyl butanedioate] + CC(C)CO          1.4082

Q: Given CCCCCCCC(=O)OCC [ethyl octanoate] + CC(C)CO , respond with its refractive index.
Result: 1.4075

----------
Measured refractive index accompanies every entry in the list below.
# measurementNotes: refractive index (Na D-line) (dimensionless); xn = mol fraction of the nth substance listed
# conditionLabel: 323.15 K; 100 kPa; Liquid; Standard Abbe refractometry; x1 = 0.5999
Write no unit; give the number alone.

Study these solved cases before continuing.
> print(dat)
                                   compound      endpointname  measurednumber
1  CCCCCCCC(=O)OCC [ethyl octanoate] + CC(C)CCO  refractive index          1.4012
2  CCCCCCCC(=O)OCC [ethyl octanoate] + CC(C)CO  refractive index          1.3985
3  CCOC(=O)CCC(=O)OCC [diethyl butanedioate] + CC(C)CO  refractive index          1.3993

Now, please, on to the next compound.
Q: Specify measured refractive index for CCOC(=O)CCC(=O)OCC [diethyl butanedioate] + CC(C)CCO .
Result: 1.4019

----------
# measurementNotes: xn = mol fraction of the nth substance listed
# conditionLabel: 303.15 K; 100 kPa; Liquid; Vibrating tube method; x1 = 0.5999
Each entry below carries its recorded mass density.
Report only the number, with the unit kg/m3 understood.

Please review the entries below; each comes with its answer.
> print(dat)
                                   compound  measurednumber
1  CCCCCCCC(=O)OCC [ethyl octanoate] + CC(C)CCO          841.96
2  CCOC(=O)CCC(=O)OCC [diethyl butanedioate] + CC(C)CO          964.11
3  CCCCCCCC(=O)OCC [ethyl octanoate] + CC(C)CO          841.57

Proceeding to the next compound to report its mass density.
Q: Retrieve mass density measured for CCOC(=O)CCC(=O)OCC [diethyl butanedioate] + CC(C)CCO and print it.
Result: 958.15

----------
# measurementNotes: xn = mol fraction of the nth substance listed
# conditionLabel: 313.15 K; 100 kPa; Liquid; Concentric cylinders viscometry; x1 = 0.5999
endpointName: viscosity (mPa·s)
Use mPa·s as the unit, but write only the number.

Illustrative cases are given below, each with its answer.
> print(dat)
                                   compound  endpointname  measurednumber
1  CCCCCCCC(=O)OCC [ethyl octanoate] + CC(C)CCO     viscosity            1.17
2  CCOC(=O)CCC(=O)OCC [diethyl butanedioate] + CC(C)CCO     viscosity           1.518
3  CCOC(=O)CCC(=O)OCC [diethyl butanedioate] + CC(C)CO     viscosity            1.48

Below: the item to evaluate.
Q: State, in one line, measured viscosity of CCCCCCCC(=O)OCC [ethyl octanoate] + CC(C)CO
Result: 1.119

----------
# measurementNotes: xn = mol fraction of the nth substance listed
# conditionLabel: 308.15 K; 100 kPa; Liquid; Concentric cylinders viscometry; x1 = 0.5999
List of viscosity values.
Express the result in mPa·s but write the number alone.

> print(dat)
                                   compound  endpointname  measurednumber
1  CCOC(=O)CCC(=O)OCC [diethyl butanedioate] + CC(C)CO     viscosity           1.629
2  CCCCCCCC(=O)OCC [ethyl octanoate] + CC(C)CCO     viscosity           1.267
3  CCOC(=O)CCC(=O)OCC [diethyl butanedioate] + CC(C)CCO     viscosity           1.661

Q: For the compound CCCCCCCC(=O)OCC [ethyl octanoate] + CC(C)CO , report viscosity.
Result: 1.21

----------
# measurementNotes: xn = mol fraction of the nth substance listed
# conditionLabel: 318.15 K; 100 kPa; Liquid; Concentric cylinders viscometry; x1 = 0.5999
endpointName: viscosity (mPa·s)
# number only, unit mPa·s dropped from output

Reference set, count: 3
> print(dat)
                                   compound  measurednumber
1  CCCCCCCC(=O)OCC [ethyl octanoate] + CC(C)CO           1.027
2  CCOC(=O)CCC(=O)OCC [diethyl butanedioate] + CC(C)CO           1.352
3  CCOC(=O)CCC(=O)OCC [diethyl butanedioate] + CC(C)CCO           1.377

Q: Please report the measured viscosity for CCCCCCCC(=O)OCC [ethyl octanoate] + CC(C)CCO
Result: 1.074

----------
# measurementNotes: xn = mol fraction of the nth substance listed
# conditionLabel: 323.15 K; 100 kPa; Liquid; Vibrating tube method; x1 = 0.5999
# mass density per entry
Field: numeric (kg/m3). Do not append units.

> print(dat)
                                   compound  endpointname  unitstring  measurednumber
1  CCOC(=O)CCC(=O)OCC [diethyl butanedioate] + CC(C)CO  mass density       kg/m3          944.18
2  CCOC(=O)CCC(=O)OCC [diethyl butanedioate] + CC(C)CCO  mass density       kg/m3          938.75
3  CCCCCCCC(=O)OCC [ethyl octanoate] + CC(C)CCO  mass density       kg/m3          824.91

Lab note: next compound to report on.
Q: Give the measured mass density for CCCCCCCC(=O)OCC [ethyl octanoate] + CC(C)CO
Result: 824.13

----------
# measurementNotes: refractive index (Na D-line) (dimensionless); xn = mol fraction of the nth substance listed
# conditionLabel: 308.15 K; 100 kPa; Liquid; Standard Abbe refractometry; x1 = 0.5999
endpointName: refractive index
Just the number.

Known results for compounds:
> print(dat)
                                   compound      endpointname  measurednumber
1  CCOC(=O)CCC(=O)OCC [diethyl butanedioate] + CC(C)CCO  refractive index          1.4084
2  CCCCCCCC(=O)OCC [ethyl octanoate] + CC(C)CCO  refractive index          1.4078
3  CCCCCCCC(=O)OCC [ethyl octanoate] + CC(C)CO  refractive index          1.4052

Next compound, please.
Q: Item CCOC(=O)CCC(=O)OCC [diethyl butanedioate] + CC(C)CO : provide refractive index
Result: 1.406

----------
# measurementNotes: xn = mol fraction of the nth substance listed
# conditionLabel: 313.15 K; 100 kPa; Liquid; Vibrating tube method; x1 = 0.5999
± gives the expanded uncertainty stated by the source.
Entries annotated with measured mass density
Please report the result as a number followed by the unit.

> print(dat)
                                   compound  endpointname              result
1  CCCCCCCC(=O)OCC [ethyl octanoate] + CC(C)CO  mass density  832.89 ± 1.6 kg/m3
2  CCOC(=O)CCC(=O)OCC [diethyl butanedioate] + CC(C)CCO  mass density  948.47 ± 1.6 kg/m3
3  CCCCCCCC(=O)OCC [ethyl octanoate] + CC(C)CCO  mass density  833.46 ± 1.6 kg/m3

Moving on to another compound below.
Q: Give the measured mass density for CCOC(=O)CCC(=O)OCC [diethyl butanedioate] + CC(C)CO
Result: 954.16 ± 1.6 kg/m3
